- experimental-parameters: 333.15 K; 100 kPa; Liquid; Vibrating tube method
Each entry below carries its recorded mass density.
Enter your answer as a number in kg/m3; do not include the unit.

Guide cases for mass density, answers given:
- CCCC[n+]1ccccc1.O=S(=O)([O-])C(F)(F)F [1-butylpyridinium trifluoromethanesulfonate]: 1288.27
- CCCCCCCC[n+]1cccc(C)c1.F[B-](F)(F)F [N-octyl-3-methylpyridinium tetrafluoroborate]: 1072.64

API: the following record is the query input.
### Prompt Which mass density value belongs to CCC[n+]1ccccc1Oc1ccc(Cl)c[n+]1CCOS(=O)(=O)[O-].F[B-](F)(F)F ?
### Response 1228.25

Source of measurements: the NIST ThermoML archive (doi:10.1016/j.fluid.2011.12.029)
